system: MCF7; assay: Antiproliferative activity against human MCF7 cells; type: functional, cell-based
pIC50: −log10 of the molar value.
MEASURED METRIC: pIC50

1) COc1cc(C(=O)c2ccc3ccn(C)c3c2)cc(OC)c1OC | 7.62
2) COc1ccc(C(=O)c2ccc3c(ccn3C)c2)c(OC)c1 | 7.07
3) COc1cc(C(=O)c2ccc3c(ccn3C)c2)cc(OC)c1OC | 8.04
4) CCn1c2ccccc2c2cc(NS(=O)(=O)c3cc(OC)c(OC)c(OC)c3)ccc21 | 7.05

[P] CCn1c2ccccc2c2cc(C(=O)c3cc(OC)c(OC)c(OC)c3)ccc21
[Q] COc1cc(C(O)c2ccc3c(ccn3C)c2)cc(OC)c1OC (stereo unspecified)
## Task Hi, I'm comparing two records. Which one has the lower pIC50, P or Q ? Indicate your choice by writing its label.
## Result Q
